Just for reference, patent US8383139B2 is where these values come from.

assay_summary: log P by HPLC on reversed-phase columns (C 18), EEC Directive 79/831 Annex V.A8
Assay type: physicochemical
experimental_parameters: [b] LC-MS, acid region pH 2.7, 0.1% aqueous formic acid and acetonitrile
Consider the following molecules; for each one, report its log p.

log p in this record for "COc1ccc(Cc2nsc(Oc3cc(C)c(N=CN(C)C4CC4)cc3C)n2)cc1" : 1.92^[b]

Lookup result for CCOCC(C1CC1)N(C)C=Nc1cc(C)c(Oc2nc(Cc3ccc(SC(F)(F)F)cc3)ns2)cc1C (centres unmarked) ; measured log p: 2.92^[b]

What the record says about "Cc1cc(Oc2nc(Cc3ccc(OC(F)(F)F)cc3)ns2)c(C)cc1N=CN(C)C1CC1" : log p is 2.2^[b]

Entry "Cc1ccc(Cc2nsc(Oc3cc(C)c(N=CN(C)C4CC4)cc3C)n2)cc1" — recorded log p = 2.19^[b]

Entry under test: "CCN(C)C=Nc1cc(Cl)c(Oc2nc(Cc3ccc(Cl)cc3Cl)ns2)cc1C" . Its log p was 2.42^[b]

The molecule identified as "Cc1cc(Oc2nc(Cc3ccc(F)cc3)ns2)c(C)cc1N=CN(C)C1CC1" registered its log p at 1.83^[b]

Quick note, log p for "Cc1cc(Oc2nc(Cc3ccc(SC(F)(F)F)cc3)ns2)c(C)cc1N=CN(C)CC(F)F" landed at 2.68^[b]

Lab book: log p of CCOCC(C1CC1)N(C)C=Nc1cc(C)c(Oc2nc(Cc3ccc(OC(F)(F)F)cc3)ns2)cc1C (centres unmarked) noted as 2.75^[b]

log p recorded for this molecule, "Cc1cc(Oc2nc(Cc3ccc(SC(F)(F)F)cc3)ns2)c(C)cc1N=CN(C)C1CC1" , is 1.83^[b]

According to the records, this molecule "CCN(C)C=Nc1cc(Cl)c(Oc2nc(Cc3ccc(Br)cc3)ns2)cc1C" displays log p of 2.26^[b]

Entry CCOCC(C1CC1)N(C)C=Nc1cc(C)c(Oc2nc(Cc3ccc(C(F)(F)F)cc3)ns2)cc1C (centres unmarked) , log p reported as 2.43^[b]

Query CCOCC(C1CC1)N(C)C=Nc1cc(C)c(Oc2nc(Cc3ccc(F)cc3)ns2)cc1C (centres unmarked) yields log p of 2.26^[b]

Just so you know, measured log p for "Cc1cc(Oc2nc(Cc3ccc(C(F)(F)F)cc3)ns2)c(C)cc1N=CN(C)CC(F)F" came out at 2.38^[b]

Record summary for "CCN(C)C=Nc1cc(C)c(Oc2nc(Cc3ccc(C)cc3)ns2)cc1C" : reported log p = 2.12^[b]

The molecule listed as CCOCC(C1CC1)N(C)C=Nc1cc(C)c(Oc2nc(Cc3ccc(OC)cc3)ns2)cc1C (centres unmarked) shows log p equal to 2.36^[b]

// "Cc1cc(Oc2nc(Cc3ccc(C(F)(F)F)cc3)ns2)c(C)cc1N=CN(C)C1CC1" : log p value = 2.28^[b]

// CCOCC(C1CC1)N(C)C=Nc1cc(C)c(Oc2nc(Cc3ccc(Cl)cc3)ns2)cc1C (centres unmarked) : log p value = 2.56^[b]

Just so you know, measured log p for "Cc1cc(Oc2nc(Cc3ccc(F)cc3)ns2)c(C)cc1N=CN(C)CC(F)F" came out at 1.99^[b]

Form: molecule = "Cc1cc(Oc2nc(Cc3ccc(OC(F)(F)F)cc3)ns2)c(C)cc1N=CN(C)CC(F)F" ; log p = 2.46^[b]

"COc1ccc(Cc2nsc(Oc3cc(C)c(N=CN(C)CC(F)F)cc3C)n2)cc1" yielded log p of 1.87^[b]

Entry under test: "Cc1ccc(Cc2nsc(Oc3cc(C)c(N=CN(C)CC(F)F)cc3C)n2)cc1" . Its log p was 2.25^[b]

Value of log p reported for the molecule CCOCC(C1CC1)N(C)C=Nc1cc(C)c(Oc2nc(Cc3ccc(C)cc3)ns2)cc1C (centres unmarked) is 2.4^[b]

log p for "Cc1cc(Oc2nc(Cc3ccc(Cl)cc3)ns2)c(C)cc1N=CN(C)C1CC1" is 2.06^[b]

----------
Test system: Septoria tritici
assay_summary: Septoria tritici test (wheat)/protective
Format: in vivo
experimental_parameters: Zymoseptoria tritici, 504 h, 500 ppm active substance, protective, evaluation 21 days after inoculation, read-out: degree of effectiveness
Description: • Solvent: 50 parts by weight of N,N-dimethylacetamide • Emulsifier: 1 part by weight of alkylaryl polyglycol ether (polyoxyethylene (16) tristearylphenyl ether) To prepare a suitable active substance composition, 1 part by weight of active substance is mixed with the given amounts of solvent and emulsifier and the concentrate is diluted to the desired concentration using water. […]
endpoint_label: pest or weed control at 500 ppm

// assay Septoria tritici, entry "CCN(C)C=Nc1cc(C)c(Oc2nc(Cc3ccc4c(c3)OCO4)ns2)cc1C" , pest or weed control at 500 ppm value = ≥ 70%

Case "CCN(C)C=Nc1cc(Cl)c(Oc2nc(Cc3ccc(Cl)cc3)ns2)cc1C" , Septoria tritici, pest or weed control at 500 ppm recorded as ≥ 70%

Note to self: pest or weed control at 500 ppm of "CCN(C)C=Nc1cc(C)c(Oc2nc(Cc3ccc(F)cc3F)ns2)cc1C" with Septoria tritici was ≥ 70%

Reported Septoria tritici pest or weed control at 500 ppm for item "CCN(C)C=Nc1cc(C)c(Oc2nc(Cc3ccccc3OC)ns2)cc1C" was ≥ 70%

Entry "CCN(C)C=Nc1cc(C)c(Oc2nc(Cc3ccccc3)ns2)cc1C" , Septoria tritici data, pest or weed control at 500 ppm value: ≥ 70%

# value of pest or weed control at 500 ppm, Septoria tritici, item CCC(c1ccccc1)c1nsc(Oc2cc(C)c(N=CN3CCCCC3)cc2C)n1 (stereo not drawn) = ≥ 70%

Note to self: pest or weed control at 500 ppm of Cc1cc(Oc2nc(C(C)c3ccccc3)ns2)c(C)cc1N=CN1CCCCC1 (stereo not drawn) with Septoria tritici was ≥ 70%

Considering "CCN(C)C=Nc1cc(C)c(Oc2nc(Cc3cccc(Cl)c3)ns2)cc1C" , its pest or weed control at 500 ppm with Septoria tritici was recorded as ≥ 70%

Field pest or weed control at 500 ppm (system: Septoria tritici) for entry "Cc1cc(Oc2nc(Cc3ccc(Cl)c(Cl)c3)ns2)c(C)cc1N=CN(C)C(C)C" = ≥ 70%

----------
System: Septoria tritici
assay_summary: Septoria tritici test (wheat)/protective
Assay type: in vivo
experimental_parameters: Zymoseptoria tritici, 504 h, 500 ppm active substance, protective, evaluation 21 days after inoculation, read-out: degree of effectiveness
endpoint_label: pest or weed control at 500 ppm

Note to self: pest or weed control at 500 ppm recorded for "Cc1cc(Oc2nc(C(C)(C)c3ccc(Cl)cc3)ns2)c(Cl)cc1N=CN1CCCCC1" was ≥ 70%

Form: compound = "CCN(C)C=Nc1cc(Cl)c(Oc2nc(C(C)(C)c3ccc(Cl)cc3)ns2)cc1C" ; pest or weed control at 500 ppm = ≥ 70%

// sample "Cc1cc(Oc2nc(Cc3ccc(Br)cc3)ns2)c(C)cc1N=CN(C)C(C)C" , its pest or weed control at 500 ppm was ≥ 70%

Measured pest or weed control at 500 ppm, "Cc1cc(Oc2nc(Cc3cccc(C(F)(F)F)c3)ns2)c(C)cc1N=CN1CCCCC1" : ≥ 70%

The measured pest or weed control at 500 ppm associated with "CCN(C)C=Nc1cc(C)c(Oc2nc(Cc3ccc(Cl)cc3)ns2)cc1C" reads ≥ 70%

Noted for "CCN(C)C=Nc1cc(C)c(Oc2nc(Cc3c(Cl)cccc3Cl)ns2)cc1C" : its pest or weed control at 500 ppm reads ≥ 70%

// pest or weed control at 500 ppm lookup, compound = "CCN(C)C=Nc1cc(C)c(Oc2nc(C(C)(C)c3ccc(Cl)cc3)ns2)cc1C" , result: ≥ 70%

// recorded pest or weed control at 500 ppm for "CCN(C)C=Nc1cc(C)c(Oc2nc(Cc3ccc(Cl)c(Cl)c3)ns2)cc1C" : ≥ 70%

----------
assay_summary: log P by HPLC on reversed-phase columns (C 18), EEC Directive 79/831 Annex V.A8
Assay type: physicochemical
experimental_parameters: reversed-phase C18 HPLC column, pH 2.3, [a] HPLC, acid region pH 2.3, 0.1% aqueous phosphoric acid and acetonitrile; read-out: log p
endpoint_label: chromatographic logP
// no unit string in output, number only

The recorded chromatographic logP for entry "CCN(C)C=Nc1cc(C)c(Oc2nc(Cc3ccccc3)ns2)cc1C" equals 1.71

So for "CCN(C)C=Nc1cc(C)c(Oc2nc(Cc3ccc(Br)cc3)ns2)cc1C" , the logged chromatographic logP turned out to be 2.07

// recorded chromatographic logP for "Cc1cc(Oc2nc(C3(c4ccc(Cl)cc4)CC3)ns2)c(Cl)cc1N=CN(C)C(C)C" : 2.71

Lookup result for "Cc1cc(Oc2nc(C3(c4ccc(Cl)cc4)CC3)ns2)c(C)cc1N=CN(C)C(C)C" ; measured chromatographic logP: 2.57

For reference, reported chromatographic logP for CCN(C)C=Nc1cc(Cl)c(Oc2nc(C(C)c3ccc(Cl)cc3)ns2)cc1C (stereo not shown) stands at 2.39

Note to self: chromatographic logP recorded for "CCN(C)C=Nc1cc(C)c(Oc2nc(Cc3ccc(F)cc3F)ns2)cc1C" was 1.94

The compound Cc1cc(Oc2nc(C(C)c3ccc(Cl)cc3)ns2)c(C)cc1N=CN1CCCCC1 (stereo not shown) showed chromatographic logP equal to 2.41

In plain terms, "Cc1cc(Oc2nc(Cc3ccccc3C(F)(F)F)ns2)c(C)cc1N=CN1CCCCC1" has a documented chromatographic logP of 2.15

Record summary for "Cc1cc(Oc2nc(Cc3ccc4c(c3)OCO4)ns2)c(C)cc1N=CN1CCCCC1" : reported chromatographic logP = 1.84

The recorded chromatographic logP for entry "Cc1cc(Oc2nc(C3(c4ccc(Cl)cc4)CC3)ns2)c(Cl)cc1N=CN1CCCCC1" equals 2.76
